Biological target: Muscarinic acetylcholine receptor M2 (Sus scrofa) (UniProt P06199)
Sequence (P06199 whole entry, looked up): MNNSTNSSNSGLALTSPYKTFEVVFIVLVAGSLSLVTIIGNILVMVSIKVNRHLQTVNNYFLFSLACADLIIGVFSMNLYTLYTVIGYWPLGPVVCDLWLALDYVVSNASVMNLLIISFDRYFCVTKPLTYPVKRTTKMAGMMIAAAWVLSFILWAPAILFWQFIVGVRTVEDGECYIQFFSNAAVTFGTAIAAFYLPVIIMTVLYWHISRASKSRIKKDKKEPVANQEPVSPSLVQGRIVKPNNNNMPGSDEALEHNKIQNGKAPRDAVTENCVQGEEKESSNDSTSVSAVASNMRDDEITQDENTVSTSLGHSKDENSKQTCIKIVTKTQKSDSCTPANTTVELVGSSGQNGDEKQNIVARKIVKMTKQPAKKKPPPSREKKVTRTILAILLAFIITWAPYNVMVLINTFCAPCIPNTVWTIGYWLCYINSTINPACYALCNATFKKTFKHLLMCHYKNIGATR
Test: Binding of [3H]N-methylscopolamine at porcine heart Muscarinic acetylcholine receptor M2 that inhibits the dissociation of [3H]NMS half maximally (pEC50diss) was reported
Please provide measured EC50 for the entries that follow.
One number for each entry, in nM.

EC50 lookup needed for CC(C)(CN1C(=O)c2ccccc2C1=O)C[N+](C)(C)CCCCCC[N+](C)(C)CC(C)(C)CN1C(=O)c2ccccc2C1=O , thanks.
178

Look at this compound and give its reported EC50. Cc1ccc2c(c1)C(=O)N(CC(C)(C)C[N+](C)(C)CCCCCC[N+](C)(C)CCCN1C(=O)c3ccccc3C1=O)C2=O
55

Field request: EC50 | item: Cc1ccc2c(c1)C(=O)N(CCC[N+](C)(C)CCCCCC[N+](C)(C)CC(C)(C)CN1C(=O)c3ccccc3C1=O)C2=O
71

For the compound Cc1ccc2c(c1)C(=O)N(CC(C)(C)C[N+](C)(C)CCCCCC[N+](C)(C)CC(C)(C)CN1C(=O)c3ccc(C)cc3C1=O)C2=O , what EC50 is on record?
47

Name the reported EC50 value associated with the compound Cc1ccc2c(c1)C(=O)N(CCC[N+](C)(C)CCCCCC[N+](C)(C)CCCN1C(=O)c3ccc(C)cc3C1=O)C2=O
170

Give the measured EC50 of CC(C)(CN1C(=O)c2ccccc2C1=O)C[N+](C)(C)CCCCCC[N+](C)(C)CCCN1C(=O)c2ccccc2C1=O .
135

# EC50 lookup, item Cc1ccc2c(c1)C(=O)N(CCC[N+](C)(C)CCCCCC[N+](C)(C)CC(C)(C)CN1C(=O)c3ccc(C)cc3C1=O)C2=O
36

Consider now this further compound.
Using the record for Cc1ccc2c(c1)C(=O)N(CCC[N+](C)(C)CCCCCC[N+](C)(C)CCCN1C(=O)c3ccccc3C1=O)C2=O , report its EC50.
324

Source listed as BindingDB's records for doi:10.1021/jm020871e.
